These molecules were tested on DNA-PK kinase (Homo sapiens); IC50 is the recorded read-out.
Give the figure together with its unit, number first.

Observe how each entry below is paired with its result.
In [3]: df
Out[3]:
                                   molecule  recordedresult
0  c1cnc(N[C@H]2[C@@H]3CN(c4nc(N5CCOCC5)cc5ncccc45)C[C@@H]32)nc1           70 nM
1  c1cnc2cc(N3CCOCC3)nc(N3CCC(CNc4cnccn4)CC3)c2c1          117 nM
2  c1cnc2cc(N3CCOCC3)nc(O[C@H]3CC[C@@H](c4ncc[nH]4)CC3)c2c1            5 nM
3  C[C@H]1CN(c2ncn[nH]2)CC[C@@H]1Oc1nc(N2CCOCC2)cc2ncccc12 (single isomer, unassigned)          102 nM
4  CN(C)C(=O)N1CC(COc2nc(N3CCOCC3)cc3ncccc23)C1          244 nM
5  C[C@H]1COCCN1c1cc2ncccc2c(O[C@H]2CC[C@@H](c3nc[nH]n3)CC2)n1           32 nM
6  Oc1cnc2cc(N3CCOCC3)nc(O[C@H]3CC[C@@H](c4nccs4)CC3)c2c1            5 nM

Please look at the following molecule next.
Incoming: Consider the molecule CS(=O)(=O)N1CCN(c2nc(N3CCOCC3)cc3ncccc23)CC1 and give its measured IC50.
Outgoing: 117 nM
